# SYSTEM UNDER TEST: thrombin (Homo sapiens)
# EXPERIMENT SUMMARY: SPR binding of porphyrins to immobilized thrombin
# Parameters: human α‐thrombin (HCT‐0020); purchased CellSystems GmbH HCT-0020
# CONDITION PARAMETERS: heterogeneous ligand model, read-out: KD1 (porphyrin binding to thrombin)
MEASUREMENT NAME: Kd

query: Entry "C=CC1=C(C)c2cc3[nH]c(cc4nc(cc5[nH]c(cc1n2)c(C)c5CCC(=O)O)C(CCC(=O)O)=C4C)c(C)c3C=C" : reported Kd = ?
result: 150 nM
